Form field: pKi (one value per entry).
assayTarget: Nuclear receptor ROR-gamma (Homo sapiens)
Sequence (P51449 whole entry): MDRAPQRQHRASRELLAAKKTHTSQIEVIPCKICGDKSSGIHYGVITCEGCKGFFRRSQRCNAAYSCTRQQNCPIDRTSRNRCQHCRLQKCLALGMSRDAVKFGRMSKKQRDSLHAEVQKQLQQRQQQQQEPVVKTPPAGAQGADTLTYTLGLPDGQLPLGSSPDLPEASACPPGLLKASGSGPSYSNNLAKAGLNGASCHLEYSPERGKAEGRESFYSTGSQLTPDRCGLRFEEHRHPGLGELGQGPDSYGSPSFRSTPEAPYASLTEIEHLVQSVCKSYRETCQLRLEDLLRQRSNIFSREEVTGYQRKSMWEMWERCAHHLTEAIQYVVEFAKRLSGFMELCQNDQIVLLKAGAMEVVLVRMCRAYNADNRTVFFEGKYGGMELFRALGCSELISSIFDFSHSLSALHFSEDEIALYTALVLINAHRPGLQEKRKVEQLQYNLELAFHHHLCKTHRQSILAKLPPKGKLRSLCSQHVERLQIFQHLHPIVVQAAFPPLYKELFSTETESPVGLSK
assay: Binding Assay: Compounds of the present invention were tested for ability to bind to RORγ in a cell-free competition assay with commercially available radio-ligand (RL), 25-hydroxy [26,27-3H]-cholesterol (PerkinElmer, Cat. #NET674250UC), for a ligand binding site on a recombinant RORγ Ligand Binding Domain (LBD) protein expressed as a 6×His-Glutathione-S-Transferase (GST) fusion. […] The plate was shaken at 700 rpm for 20 min and incubated for 10 min at rt, after which 40 μL of poly-Lys YSi SPA beads (PerkinElmer, Cat. #RPNQ0010) were added to achieve 50 μg of the beads per well. The plate was incubated on an orbital shaker for 20 min and then for 10 min without agitation at rt. SPA signal for tritium beta radiation was registered on PerkinElmer Microbeta plate reader.
pKi: −log10 of the molar value.

Examples with their reported pKi follow.
1. CCS(=O)(=O)c1ccc(CC(=O)Nc2cnc3c(c2)CN(Cc2ccc(Cl)cc2)[C@H]3C(C)C)cc1	> 7.00
2. CCS(=O)(=O)c1ccc(C2(NC(=O)c3cnc4c(c3)CN(Cc3ccc(C(F)(F)F)cc3)[C@H]4C(C)C)CC2)nc1	> 7.00

Kindly review the next compound as well.
**Q:** Supply pKi value. Item: CCS(=O)(=O)c1ccc(CNC(=O)c2cnc3c(c2)C(=O)N(Cc2ccc(Cl)cc2)[C@H]3C(C)C)cc1
**A:** > 7.00

Sourced from ChEMBL document CHEMBL5726133
